Taken from ChEMBL document CHEMBL1146726.

- Experimental Target: Human immunodeficiency virus type 1 integrase (Human immunodeficiency virus 1, UniProt Q7ZJM1)
- Sequence (Q7ZJM1 whole entry): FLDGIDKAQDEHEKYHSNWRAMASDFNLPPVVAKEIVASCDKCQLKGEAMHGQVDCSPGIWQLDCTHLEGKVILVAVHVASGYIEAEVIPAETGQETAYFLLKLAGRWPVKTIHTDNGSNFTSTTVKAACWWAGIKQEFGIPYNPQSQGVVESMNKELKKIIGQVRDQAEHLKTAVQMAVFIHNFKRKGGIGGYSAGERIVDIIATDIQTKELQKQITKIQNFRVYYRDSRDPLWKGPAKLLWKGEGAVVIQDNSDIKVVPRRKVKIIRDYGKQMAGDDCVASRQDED
- Assay Notes: In vitro inhibition of recombinant integrase activity in a standard 3'-processing assay.
Recorded measurements of log10 IC50, one per entry
Quantity Name: log10 IC50 (log10 of the value in µM)

| Structure | Reported |
| --- | --- |
| COc1cc(NC(=O)c2ccc3ccc(C(=O)O)c(O)c3n2)cc(O)c1O | 0.81 |
| O=C(NCc1ccc(O)c(O)c1)c1ccc2ccc(C(=O)O)c(O)c2n1 | 0.70 |
| O=C(/C=C(\O)c1ccccc1)c1ccc2ccc(C(=O)O)c(O)c2n1 | 1.48 |
| O=C(NCc1ccc(O)cc1O)c1ccc2ccc(C(=O)O)c(O)c2n1 | 0.70 |
| COc1cc(CNC(=O)c2ccc3ccc(C(=O)O)c(O)c3n2)cc(O)c1O | 0.81 |
| O=C(NCc1ccc(O)c(O)c1O)c1ccc2ccc(C(=O)O)c(O)c2n1 | 0.18 |
| O=C(NNc1ccc([N+](=O)[O-])cc1[N+](=O)[O-])c1ccc2ccc(C(=O)O)c(O)c2n1 | 0.48 |

====

- Experimental Target: Human immunodeficiency virus type 1 integrase (Human immunodeficiency virus 1)
- Assay Notes: In vitro inhibition of recombinant integrase activity in a standard 3'-processing assay.

| Structure | IC50 |
| --- | --- |
| O=C(Nc1ccc2ccc(C(=O)O)c(O)c2n1)c1ccccc1 | > 100 µM |
| O=C(NCc1ccc(O)c(O)c1)Nc1ccc2ccc(C(=O)O)c(O)c2n1 | > 100 µM |
| O=C(NCc1cccc(O)c1O)c1ccc2ccc(C(=O)O)c(O)c2n1 | 5 µM |
| O=C(NNc1ccccc1)c1ccc2ccc(C(=O)O)c(O)c2n1 | > 100 µM |
| O=C(Nc1ccc(O)c(O)c1)c1ccc2ccc(C(=O)O)c(O)c2n1 | 0.9 µM |

====

Recorded measurements of IC50, one per entry
- Experimental Target: Human immunodeficiency virus type 1 integrase (Human immunodeficiency virus 1, UniProt Q7ZJM1)
- Assay Notes: In vitro inhibition of recombinant integrase activity in a standard 3'-processing assay.

| Structure | IC50 |
| --- | --- |
| O=C(NCc1cc(O)cc(O)c1)c1ccc2ccc(C(=O)O)c(O)c2n1 | > 100 µM |
| O=C(Nc1ccc(O)c(O)c1)Nc1ccc2ccc(C(=O)O)c(O)c2n1 | > 100 µM |
| COc1ccc(CNC(=O)Nc2ccc3ccc(C(=O)O)c(O)c3n2)cc1 | > 100 µM |
